- Protocol Notes: Cytotoxicity against human MCF7 cells assessed as cell viability at 15 uM after 72 hrs by Celltitre-glo assay
- Assay type: cell-based
- Setup Conditions: read-out: Activity
Attribute: viability at 72 h, 15 µM

Query Smiles	viability at 72 h, 15 µM, %
COc1ccc(/C=C2\Oc3ccccc3C2=O)cc1OC	91
O=C(/C=C/c1ccc(Cl)cc1)c1ccccc1O	90
COc1cccc(/C=C2\Oc3ccccc3C2=O)c1	89
COc1ccc(/C=C2\Oc3ccccc3C2=O)cc1	88
COc1cc(OC)c2c(c1)O/C(=C\c1ccccc1OC)C2=O	89
O=C1/C(=C/c2ccc(Cl)cc2)Oc2ccccc21	85
COc1cc(OC)c2c(c1)O/C(=C\c1ccccc1)C2=O	73
COc1ccc(/C=C2\Oc3ccc(Br)cc3C2=O)cc1OC	108
